# Tested on: plasma proteins
# EXPERIMENT_NOTES: in vitro
MEASURE: fraction unbound

1. C[C@@](COC12CCN(CC1)CC2)(c1ccccc1)C1CCCC1 :: 0.218

----------
# TEST_TARGET: immobilized human serum albumin (HSA) (Homo sapiens)
# EXPERIMENT_NOTES: Drug-protein binding screening by HPLC on immobilized HSA column (HSA-HPLC)
# PARTICULARS: reference compounds; Chiral-HSA 50 × 3 mm column, mobile phase 0.9% NaCl (pH 7.0), 0.5 mL/min, 100 µg/mL, 10 µL injected
Where a name gives a salt, the structure may show the parent alone.
log10 Retention time reference
MEASURE: log10 Retention time (log10 of the value in min)

1. Nc1ccc(S(=O)(=O)Nc2ncccn2)cc1 :: 0.27
2. CN(C)CCC(c1ccc(Cl)cc1)c1ccccn1 (centres unmarked) [Chlorphenamine maleate] :: 0.77
3. OC(Cn1cncn1)(Cn1cncn1)c1ccc(F)cc1F :: 0.03
4. C[C@@H]1O[C@@H](OC[C@H]2O[C@@H](Oc3c(-c4ccc(O)c(O)c4)oc4cc(O)cc(O)c4c3=O)[C@H](O)[C@@H](O)[C@@H]2O)[C@H](O)[C@H](O)[C@H]1O [Rutoside] :: 1.13
5. Oc1cc(O)c2c(c1)O[C@H](c1ccc(O)c(O)c1)[C@@H](O)C2 :: 0.29
6. O=C1NC(=O)C(c2ccccc2)(c2ccccc2)N1 [Phenytoin sodium] :: 1.18
7. O=C(O)/C=C/c1ccc(O)c(O)c1 :: 0.60
8. NS(=O)(=O)c1cc2c(cc1C(F)(F)F)NC(Cc1ccccc1)NS2(=O)=O (centres unmarked) [Bendroflumethiazide] :: 0.51

----------
# TEST_TARGET: immobilized human serum albumin (HSA) (Homo sapiens, UniProt P02768)
# EXPERIMENT_NOTES: Drug-protein binding screening by HPLC on immobilized HSA column (HSA-HPLC)
# PARTICULARS: reference compounds; Chiral-HSA 50 × 3 mm column, mobile phase 0.9% NaCl (pH 7.0), 0.5 mL/min, 100 µg/mL, 10 µL injected
Structures can show the parent of a compound that is named as a salt.
Criterion: Retention time strictly under 1 min. Met: label 1. Not met: label 0.

1. O=c1c(O)c(-c2ccc(O)c(O)c2)oc2cc(O)cc(O)c12 [Quercetin] :: label 1
2. Cn1c(=O)c2c(ncn2C)n(C)c1=O [Caffeine] :: label 0
3. CCN(CC)CCOc1ccc(C(=C(Cl)c2ccccc2)c2ccccc2)cc1 [clomifene citrate] :: label 0
4. CC(C)NCC(O)COc1cccc2ccccc12 (stereo not drawn) [Propranolol hydrochloride] :: label 0
5. Cc1cc(C)nc(NS(=O)(=O)c2ccc(N)cc2)n1 [Sulfadimidine] :: label 0
6. O=C(C1CCCCC1)N1CC(=O)N2CCc3ccccc3C2C1 (stereo not drawn) [Praziquantel] :: label 0
7. CNC(=C[N+](=O)[O-])NCCSCc1ccc(CN(C)C)o1 [Ranitidine hydrochloride] :: label 0
8. COC(=O)[C@H]1[C@H]2C[C@@H]3c4[nH]c5cc(OC)ccc5c4CCN3C[C@H]2C[C@@H](OC(=O)c2cc(OC)c(OC)c(OC)c2)[C@@H]1OC [Reserpine] :: label 1
9. CN1CCOC(c2ccccc2)c2ccccc2C1 (stereo not drawn) [Nefopam hydrochloride] :: label 0
10. CCOc1ccc(NC(C)=O)cc1 [Phenacetin] :: label 0
11. CC(=O)OCC(=O)[C@@]1(O)CC[C@H]2[C@@H]3CCC4=CC(=O)CC[C@]4(C)[C@H]3[C@@H](O)C[C@@]21C [Hydrocortisone acetate] :: label 1
12. CC(=O)[C@H]1CC[C@H]2[C@@H]3CCC4=CC(=O)CC[C@]4(C)[C@H]3CC[C@]12C [Progesterone] :: label 0

----------
# Tested on: plasma proteins
# EXPERIMENT_NOTES: PPB experiment by ultrafiltration
# PARTICULARS: plasma, PPB by ultrafiltration, plasma, 10, 40, 200, 100, 2000, 100 ng/mL for A, B, C, D, E, F; 37°C 30 min; Microcon YM-30, triplicates
MEASURE: fraction unbound at 30 min

1. Cc1cc(SCc2cnc(-c3ccc(C(F)(F)F)cc3)nc2)ccc1OCC(=O)O :: 0.005
2. CC(C)[C@]12O[C@H]1[C@@H]1O[C@]13[C@]1(O[C@H]1C[C@H]1C4=C(CC[C@@]13C)C(=O)OC4)[C@@H]2O :: 0.784
3. CCN(CC)Cc1cc(-c2nc3c(Cl)nnc(OC)c3n2C)ccc1O :: 0.485

----------
# TEST_TARGET: human serum albumin (HSA) (Homo sapiens)
# Sequence (P02768 25-609): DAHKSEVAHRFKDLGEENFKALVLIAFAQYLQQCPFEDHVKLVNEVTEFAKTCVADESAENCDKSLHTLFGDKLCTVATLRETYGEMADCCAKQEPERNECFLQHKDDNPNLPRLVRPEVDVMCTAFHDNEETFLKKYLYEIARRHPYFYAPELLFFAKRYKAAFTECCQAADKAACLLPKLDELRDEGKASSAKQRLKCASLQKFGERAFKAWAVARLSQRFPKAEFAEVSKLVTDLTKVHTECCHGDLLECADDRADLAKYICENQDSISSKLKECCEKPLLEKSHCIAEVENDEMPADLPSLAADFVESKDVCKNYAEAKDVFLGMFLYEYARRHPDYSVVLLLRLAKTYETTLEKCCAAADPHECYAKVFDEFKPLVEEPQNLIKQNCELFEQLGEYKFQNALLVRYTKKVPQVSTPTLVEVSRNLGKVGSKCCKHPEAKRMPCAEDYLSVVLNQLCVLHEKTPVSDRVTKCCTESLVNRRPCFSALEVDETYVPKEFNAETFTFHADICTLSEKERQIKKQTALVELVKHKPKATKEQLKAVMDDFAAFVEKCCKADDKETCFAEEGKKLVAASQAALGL
# EXPERIMENT_NOTES: Drug-protein binding screening by HPLC on immobilized HSA column (HSA-HPLC)
# PARTICULARS: human, pH 7
fraction unbound at 100 µg/mL reference
MEASURE: fraction unbound at 100 µg/mL

1. Cc1cc(SCc2cnc(-c3ccc(C(F)(F)F)cc3)nc2)ccc1OCC(=O)O :: < 0.1
2. CCN(CC)Cc1cc(-c2nc3c(Cl)nnc(OC)c3n2C)ccc1O :: > 0.1
